Source of measurements: paper PMC10756276

Target: UniProt:Q9H3N8
Sequence (Q9H3N8 whole entry): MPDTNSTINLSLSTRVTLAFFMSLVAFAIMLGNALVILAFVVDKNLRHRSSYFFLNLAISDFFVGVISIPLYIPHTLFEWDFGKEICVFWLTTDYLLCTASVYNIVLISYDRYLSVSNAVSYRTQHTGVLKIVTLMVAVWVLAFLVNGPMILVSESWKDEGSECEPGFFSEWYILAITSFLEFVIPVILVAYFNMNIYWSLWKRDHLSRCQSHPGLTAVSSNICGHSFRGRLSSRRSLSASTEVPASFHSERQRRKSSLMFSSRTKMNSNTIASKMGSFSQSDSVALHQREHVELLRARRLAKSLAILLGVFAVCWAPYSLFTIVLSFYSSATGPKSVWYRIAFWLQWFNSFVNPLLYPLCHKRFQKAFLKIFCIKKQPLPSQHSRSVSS
Assay: PDSP competitive binding assay
Details: read-out: Ki, H4; dose response curve
endpointLabel: pKi
Give bare numbers, as −log10 of the molar value.

Incoming: Report pKi for OCCCN1CC[C@@H]2C[C@H]1c1cc(-c3ccc(C(F)(F)F)cc3)ccc12 [FEM-1689] please.
Outgoing: 5.26
